The entries that follow carry IC50 values tested on Aromatase (Homo sapiens, UniProt P11511), drawn from several published reports.
Biological target: Aromatase (Homo sapiens, UniProt P11511)
Sequence (P11511 whole entry): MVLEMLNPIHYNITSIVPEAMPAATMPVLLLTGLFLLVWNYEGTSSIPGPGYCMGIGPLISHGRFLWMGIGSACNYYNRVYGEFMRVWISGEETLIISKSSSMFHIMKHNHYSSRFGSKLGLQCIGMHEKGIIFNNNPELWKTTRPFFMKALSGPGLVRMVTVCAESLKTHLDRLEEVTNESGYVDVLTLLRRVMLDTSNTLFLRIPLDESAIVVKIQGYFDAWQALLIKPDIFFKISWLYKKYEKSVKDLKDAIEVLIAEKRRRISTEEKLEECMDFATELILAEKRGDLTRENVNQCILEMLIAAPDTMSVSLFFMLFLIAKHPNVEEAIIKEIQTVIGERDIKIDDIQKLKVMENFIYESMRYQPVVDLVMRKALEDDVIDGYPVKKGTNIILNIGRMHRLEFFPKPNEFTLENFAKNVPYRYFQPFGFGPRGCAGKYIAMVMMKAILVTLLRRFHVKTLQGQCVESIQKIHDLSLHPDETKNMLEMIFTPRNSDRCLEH
observed property: IC50 (µM)

[[record]]
compound = "N#Cc1ccc(C(c2ccc(C#N)cc2)n2cc(C3CCCCC3)nn2)cc1"
units_of_measure = "µM"
value_reported = 19.3

[[record]]
compound = "N#Cc1ccc2[nH]c(-c3cccnc3)cc2c1"
units_of_measure = "µM"
value_reported = 11.5

[[record]]
compound = "c1ccc(Cn2cc(COc3ccc(-c4ccccc4)cc3)nn2)cc1"
units_of_measure = "µM"
value_reported = 10.7

[[record]]
compound = "O=C(Cn1ccnc1)c1ccc(OCc2cccc([N+](=O)[O-])c2)cc1"
units_of_measure = "µM"
value_reported = 3.71


A = O=C1CCc2cc(Cc3ccncc3)cc3c2N1CC3
B = c1ccc(C(c2ccccc2)n2nccn2)cc1
C = CC(C)Oc1ccc(COc2ccc3c(Cn4ccnc4)cc(=O)oc3c2)cc1
D = N#Cc1cc(Cn2cncn2)cc(-c2ccccc2)c1
Task item: Rank ascending by IC50. Your answer should be the labels, listed in the requested order.
Reply: D, C, A, B

A = N#Cc1ccc(OCc2cn(C(c3ccccc3)c3ccccc3)nn2)cc1
B = O=C(Cn1ccnc1)c1ccc(OCc2cccnc2)cc1
Task item: // which entry reports the smaller IC50, A or B ? Provide the label of your selected option as the answer.
Reply: A
(A: 16.4 µM, B: 31.8 µM)

A = c1ccc(Cn2ccnn2)cc1
B = O=c1cc(OCc2cn(-c3ccc(S(=O)(=O)NCCc4ccccc4)cc3)nn2)c2ccccc2o1
Task item: Which entry shows the lesser value of IC50 here, A or B ? Your choice should be expressed through its label.
Reply: B

I = COc1ccc(OCc2cn(Cc3ccc(C#N)cc3)nn2)cc1
II = O=c1c(Cc2ccncc2)coc2ccccc12
III = N#Cc1ccc(-c2cccnc2)c(OCCc2ccccc2)c1
IV = C=C(c1ccncc1)c1cc2c3c(c1)CCN3C(=O)CC2
Task item: Hey, quick one: sort these by IC50, low to high? Answer format: the labels, in the requested order.
Reply: III, IV, I, II
(III: 0.165 µM, IV: 0.565 µM, I: 2.34 µM, II: 6.1 µM)

1 = O=C1/C(=C\c2cccnc2)C(c2ccccc2)n2cccc21 (configuration not stated)
2 = CCCCCCCc1cn(C(c2ccc(C#N)cc2)c2ccc(C#N)cc2)nn1
Task item: Between the entries labeled 1 and 2 , whose measured IC50 is lower? Your choice should be expressed through its label.
Reply: 1

1 = c1cncc(-c2cc3ccccc3[nH]2)c1
2 = O=c1c2ccccc2oc2c(Cn3ccnc3)cccc12
Task item: Select the item with the higher value of IC50 from the options 1 and 2 listed. Pick one and reply with its label.
Reply: 1
(1: 3.05 µM, 2: 0.017 µM)

a = COc1cccc(-c2cc(=O)c3ccc4[nH]ccc4c3[nH]2)c1
b = O=Cc1ccc(OCc2cn(-c3ccc(S(=O)(=O)NCCc4ccccc4)cc3)nn2)cc1
Task item: I need your help: which of the pair a , b has higher IC50? Response format: the label of the selected entry.
Reply: b
(b: 7.9 µM, a: 0.59 µM)

A = CCCCCCCC1(c2ccncc2)CCC(=O)NC1=O (configuration not stated)
B = Clc1ccc(CN(Cc2ccccc2)n2ccnc2)s1
Task item: Compare A and B and name the one whose reported IC50 is smaller. Give the chosen item's label as your response.
Reply: B
(B: 1.06 µM, A: 3.2 µM)

I = O=C1Nc2ccccc2C1(c1[nH]c2ccccc2c1CCNS(=O)(=O)c1ccccc1[N+](=O)[O-])c1[nH]c2ccccc2c1CCNS(=O)(=O)c1ccccc1[N+](=O)[O-]
II = CC(C)=C(c1ccncc1)c1ccc(-c2ccc(N)c(N)c2)cc1
Task item: Which is greater in IC50, the first item I or the second item II ? # reply format: chosen label
Reply: II
